Tested on: EKVX NSCLC
Experiment: NCI-60 one-dose screen, 48 h (100 = growth as untreated, 0 = no growth, -100 = all killed)
Conditions: 10 µM unless noted
About 83,000 compounds went through this panel and 20% of them were active in at least one assay; those are over-represented in the sample as a whole.
Each item that follows carries a reported growth.
The reply should be a number in %, with the unit left off.

| COMPOUND | growth / % |
| --- | --- |
| CC[C@@H](C(=O)[C@@H](C)[C@@H](O)[C@H](C)[C@@H]1O[C@@H]([C@@H](CC)C(=O)ONC(=O)c2ccccc2O)CC[C@@H]1C)C1O[C@]2(C=CC(=O)[C@]3(CC[C@@](C)([C@H]4CC[C@](O)(CC)[C@H](C)O4)O3)O2)[C@H](C)C[C@@H]1C (stereo partly drawn) | 45.2 |
| CCN(CC)CCOc1ccc(C(=O)/C=C\c2ccc(Cl)cc2Cl)cc1 | 63.5 |
| Nc1c(Cl)cc(/C=C2\C=Cc3ccccc32)cc1Cl | 94.2 |
| Cc1ccc(S(=O)(=O)OC[C@]23CCC(C)(C)C[C@H]2C2=CC[C@@H]4[C@@]5(C)CCCNC(C)(C)[C@@H]5CC[C@@]4(C)[C@]2(C)CC3)cc1 | 83 |
| CC1(C)N=C(N)N=C(N)N1c1cc(Cl)ccc1Cl | 99.7 |
| Cc1ccc2c(c1)=C/C(=C\c1cc(-c3ccccc3)[nH]c1O)C(=O)N=2 | 52 |

## Task Lab note: need growth for C=CC(CC(c1ccccc1)(c1ccccc1)c1ccccc1)N(CC)CC (stereo not drawn) on EKVX NSCLC, anyone have it?
## Result 75.7

## Task Provide the documented growth with EKVX NSCLC as the system for CCOC(=O)c1nnn(-c2no[n+]([O-])c2-c2ccc(OC)cc2)c1COc1cccc2cccnc12
## Result 44.8

## Task Missing value: growth, EKVX NSCLC, entry N#Cc1c(-c2ccccc2)nc2c(c(-c3ccc(Cl)cc3)nn2-c2ccccc2)c1-c1ccc([N+](=O)[O-])cc1 . Fill in?
## Result 103

Each recorded value in this set is attributed to PubChem BioAssay (NCI).
